Just for reference, PubChem BioAssay (NCI) is where these values come from.

tested on: ACHN renal; assay: NCI-60 one-dose screen, 48 h (100 = growth as untreated, 0 = no growth, -100 = all killed); settings: 10 µM unless noted
The panel holds about 83,000 compounds, 20% with a hit somewhere; the sample as a whole holds those more often.
readout: growth (%)
Field format: number, assumed %, no unit text.

Value lookup for growth; key = N#Cc1cnn(-c2nc3c(Cl)cccc3s2)c1N 67.4

Value lookup for growth; key = COc1ccc(Nc2nc(SC)nc(-c3cccc([N+](=O)[O-])c3)c2C#N)cc1 16.9

Value lookup for growth; key = COc1ccc(/C=C/C(=O)c2cc(O)ccc2O)cc1 84.9

Value lookup for growth; key = COc1cc(-c2ccc3c(c2)NC(=O)/C3=C\c2ccc[nH]2)ccc1O 11.6

Value lookup for growth; key = CCOc1cc2ncc(C#N)c(Nc3ccc(F)c(Cl)c3)c2cc1NC(=O)CC1CCSS1 (stereo unspecified) -90.7

Value lookup for growth; key = COc1cc(-c2nc3ccccc3[nH]2)ccc1OCc1nnc(-c2ccc(CC(C)C)cc2)o1 101
